Target: TAAR1 (Mus musculus, UniProt Q923Y8)
Construct: expressed in transfected cells; host or cells: HEK293 cells (ATCC #CRL-1573), stably transfected with pIRESneo2 expression plasmid; membrane preparation
Sequence (Q923Y8 whole entry): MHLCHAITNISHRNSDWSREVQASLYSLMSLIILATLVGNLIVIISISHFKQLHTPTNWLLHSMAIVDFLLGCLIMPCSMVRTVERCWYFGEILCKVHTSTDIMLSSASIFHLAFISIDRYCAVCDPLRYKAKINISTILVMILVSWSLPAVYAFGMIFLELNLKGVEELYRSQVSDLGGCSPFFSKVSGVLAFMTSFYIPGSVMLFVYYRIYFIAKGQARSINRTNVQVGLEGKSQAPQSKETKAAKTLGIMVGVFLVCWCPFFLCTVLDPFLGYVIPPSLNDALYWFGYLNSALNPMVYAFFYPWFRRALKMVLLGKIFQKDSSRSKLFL
Assay: Radioligand binding assay on membranes of HEK293 cells stably expressing TAAR1
Conditions: radioligand [3H]-rac-2-(1,2,3,4-tetrahydro-1-naphthyl)-2-imidazoline 60 nM, 4° C., 30 min, read-out: Ki value (μM) in mouse
OBSERVABLE: Ki (µM)

Example cases with answers are listed next.
CCNc1ccc(C(=O)Nc2cccc(OC)c2)cc1[N+](=O)[O-]; 0.024
O=C(Nc1cccc(Cl)c1)c1cnc(N2CCCCC2)c(Cl)c1; 0.038
COc1cccc(NC(=O)c2ccc(N3CCCC3)c(C(F)(F)F)c2)c1; 0.002
O=C(Nc1cccc(Br)c1)c1ccc(N2CCCC2)c(C(F)(F)F)c1; 0.046
COc1cccc(NC(=O)c2ccc(F)c([N+](=O)[O-])c2)c1; 0.09

1. COc1cccc(NC(=O)c2ccc(F)c(Cl)c2)c1
2. COc1cccc(NC(=O)c2cnc(N3CCC(C)CC3)c(Cl)c2)c1
Req: Given 1 and 2 , report the one with the higher recorded Ki. Which one? Tell me its label.
Resp: 1
(1: 0.1 µM, 2: 0.0098 µM)

###

Biological target: TAAR1 (Mus musculus)
Construct: expressed in transfected cells; host or cells: HEK293 cells (ATCC #CRL-1573), stably transfected with pIRESneo2 expression plasmid; membrane preparation
Assay: Radioligand binding assay on membranes of HEK293 cells stably expressing TAAR1
Conditions: radioligand [3H]-rac-2-(1,2,3,4-tetrahydro-1-naphthyl)-2-imidazoline 60 nM, 4° C., 30 min, read-out: Ki value (μM) in mouse
OBSERVABLE: Ki (µM)

Reference set, count: 4
O=C(Nc1cccc(Cl)c1)c1cnc(N2CCNCC2)c(Cl)c1; 0.0348
COc1cccc(NC(=O)c2ccc(Cl)c([N+](=O)[O-])c2)c1; 0.037
CCOc1cccc(NC(=O)c2ccc(N3CCCC3)c(C(F)(F)F)c2)c1; 0.001
CC(C)Oc1cccc(NC(=O)c2ccc(N3CCCC3)c(C(F)(F)F)c2)c1; 0.007

P. COc1cccc(NC(=O)c2ccc(F)c(C(F)(F)F)c2)c1
Q. COc1cccc(NC(=O)c2ccc(N3CC(C)CC(C)C3)c(C(F)(F)F)c2)c1 (racemic)
R. COc1cccc(NC(=O)c2ccc(N3CCC(C)CC3)c([N+](=O)[O-])c2)c1
Req: Task field, ranking: reported Ki, descending order. Output the labels ranked as instructed.
Resp: P, Q, R
(P: 0.03 µM, Q: 0.007 µM, R: 0.002 µM)

1. O=C(Nc1cccc(Cl)c1)c1ccc(N2CCNCC2)nc1
2. COc1cccc(NC(=O)c2cnc(N3CCCC3)c(C(F)(F)F)c2)c1
3. COc1cccc(NC(=O)c2ccc(N3CCC(C(F)(F)F)CC3)c(C(F)(F)F)c2)c1
4. COc1cccc(NC(=O)c2cnc(N3CCCC3)c(Cl)c2)c1
Req: Given 4 compounds, produce a descending ranking by Ki. // list labels; follow requested order
Resp: 1, 4, 3, 2
